- method.description: In vivo kinetics experiment (radioactivity distribution)
- Parameters: species or system Wistar male rat
- test.conditions: rat, caudal vein, 30 min after administration
- Protocol: Each of Compounds [^18F] 100, [^18F] 200, [^123I] 400, [^18F] 500, and [^123I] 601 to 610 obtained by the methods described in Examples 2, 4, 7, 9, 11, 13, 15, 17, 19, 21, 23, 25, 27, and 29, or [^123I] […] From the thus sacrificed rat, blood and organs (heart, lung, stomach, liver, spleen, small intestine, large intestine, kidney, bladder (including urine), muscle (lower limbs), brain, adrenal gland, testis, fat, femur, or thyroid gland) were excised, and the weights thereof were then measured. […]
Recorded Radioactivity distribution Remaining whole body for the following compounds

In [3]: df
Out[3]:
                                   compound     measured_result
0  [123I]c1ccc2nc(-c3cncc(Cn4ccnn4)c3)n(C3CC3)c2c1 [[^123I] 603]  0.27 ± 0.01 % ID/g

Tell me its Radioactivity distribution Remaining whole body given [123I]c1ccc2nc(-c3cncc(Cn4ccnc4)c3)n(C3CC3)c2c1 [[^123I] 602] as the entry.
0.31 ± 0.01 % ID/g

Specify reported Radioactivity distribution Remaining whole body for the compound shown: Fc1cc2nc(-c3cncc(Cn4ccnc4)c3)n(CCC[18F])c2cc1Cl [[^18F] 500]
0.11 ± 0.01 % ID/g

// Input: Fc1cc2nc(-c3cncc(Cn4ccnc4)c3)n(CC[18F])c2cc1Cl [[^18F] 100] . Output its Radioactivity distribution Remaining whole body only.
0.18 ± 0.03 % ID/g

Entry FCCn1c(-c2cncc(Cn3ccnc3)c2)nc2cc(F)c([123I])cc21 [[^123I] 400] needs its Radioactivity distribution Remaining whole body filled in; supply it.
0.31 % ID/g

Report Radioactivity distribution Remaining whole body, nothing else, for this compound: Fc1cc2nc(-c3cncc(Cn4ccnc4)c3)n(CC[18F])c2cc1Br [[^18F] 200]
0.13 ± 0.02 % ID/g
